Reported Var.EC50/HuIgG1 EC50 by item:
test_system: T1, human CD11a (human) (UniProt P20701)
T1 sequence (looked up): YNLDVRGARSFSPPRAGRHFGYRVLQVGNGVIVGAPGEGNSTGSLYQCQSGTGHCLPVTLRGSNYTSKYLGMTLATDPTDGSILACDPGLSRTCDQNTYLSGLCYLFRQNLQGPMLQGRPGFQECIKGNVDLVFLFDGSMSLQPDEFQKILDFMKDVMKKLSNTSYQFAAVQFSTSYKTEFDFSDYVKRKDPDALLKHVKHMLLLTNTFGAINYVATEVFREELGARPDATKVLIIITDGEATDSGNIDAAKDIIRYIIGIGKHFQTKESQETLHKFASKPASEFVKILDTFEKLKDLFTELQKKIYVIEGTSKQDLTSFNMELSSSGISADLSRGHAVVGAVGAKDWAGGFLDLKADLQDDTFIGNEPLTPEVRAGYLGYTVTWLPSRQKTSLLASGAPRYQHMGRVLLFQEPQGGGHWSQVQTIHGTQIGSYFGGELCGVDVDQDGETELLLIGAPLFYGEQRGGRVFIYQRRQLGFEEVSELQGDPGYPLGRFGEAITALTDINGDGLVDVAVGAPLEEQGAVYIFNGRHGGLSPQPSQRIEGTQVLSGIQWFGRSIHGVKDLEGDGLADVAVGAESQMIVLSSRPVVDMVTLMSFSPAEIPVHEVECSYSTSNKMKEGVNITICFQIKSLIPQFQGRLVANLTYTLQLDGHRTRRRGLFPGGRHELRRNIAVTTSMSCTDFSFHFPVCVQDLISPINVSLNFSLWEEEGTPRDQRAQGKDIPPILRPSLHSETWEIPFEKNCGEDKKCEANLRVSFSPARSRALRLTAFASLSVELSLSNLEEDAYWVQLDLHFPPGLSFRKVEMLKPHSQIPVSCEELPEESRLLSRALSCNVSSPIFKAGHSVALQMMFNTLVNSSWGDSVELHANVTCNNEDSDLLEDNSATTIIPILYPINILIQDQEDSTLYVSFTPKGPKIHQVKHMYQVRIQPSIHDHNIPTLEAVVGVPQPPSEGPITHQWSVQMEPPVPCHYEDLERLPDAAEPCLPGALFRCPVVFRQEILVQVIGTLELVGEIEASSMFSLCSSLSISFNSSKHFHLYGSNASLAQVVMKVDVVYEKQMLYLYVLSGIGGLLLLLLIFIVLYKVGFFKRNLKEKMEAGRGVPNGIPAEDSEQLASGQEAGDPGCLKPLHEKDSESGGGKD
protocol_summary: FACScan, Jurkat cells
experimental_readout: Var.EC50/HuIgG1 EC50

binder="HisH52Ala variant IgG1 (antibody, V domains shown) VH: EVQLVESGGGLVQPGGSLRLSCAASGYSFTGHWMNWVRQAPGKGLEWVGMIAPSDSETRYNQKFKDRFTISVDKSKNTLYLQMNSLRAEDTAVYYCARGIYFYGTTYFDYWGQGTLVTVSS VL: DIQMTQSPSSLSASVGDRVTITCRASKTISKYLAWYQQKPGKAPKLLIYSGSTLQSGVPSRFSGSGSGTDFTLTISSLQPEDFATYYCQQHNEYPLTFGQGTKVEIK" data_value=1.5
binder="H2A2 variant IgG1 (antibody, V domains shown) VH: EVQLVESGGGLVQPGGSLRLSCAASGYSFTGHWMNWVRQAPGKGLEWVGMIHPADAETRYNQKFKDRFTISVDKSKNTLYLQMNSLRAEDTAVYYCARGIYFYGTTYFDYWGQGTLVTVSS VL: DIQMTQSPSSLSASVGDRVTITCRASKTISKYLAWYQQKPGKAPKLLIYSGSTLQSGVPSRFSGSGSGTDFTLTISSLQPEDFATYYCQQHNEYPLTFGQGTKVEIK" data_value=1.9
binder="H2C11 variant IgG1 (antibody, V domains shown) VH: EVQLVESGGGLVQPGGSLRLSCAASGYSFTGHWMNWVRQAPGKGLEWVGMIAPASSNTRYNQKFKDRFTISVDKSKNTLYLQMNSLRAEDTAVYYCARGIYFYGTTYFDYWGQGTLVTVSS VL: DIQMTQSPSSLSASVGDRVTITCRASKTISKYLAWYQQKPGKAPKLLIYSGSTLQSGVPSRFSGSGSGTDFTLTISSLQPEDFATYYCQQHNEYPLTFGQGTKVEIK" data_value=24.9
binder="H2C5 variant IgG1 (antibody, V domains shown) VH: EVQLVESGGGLVQPGGSLRLSCAASGYSFTGHWMNWVRQAPGKGLEWVGMIAPANSNTRYNQKFKDRFTISVDKSKNTLYLQMNSLRAEDTAVYYCARGIYFYGTTYFDYWGQGTLVTVSS VL: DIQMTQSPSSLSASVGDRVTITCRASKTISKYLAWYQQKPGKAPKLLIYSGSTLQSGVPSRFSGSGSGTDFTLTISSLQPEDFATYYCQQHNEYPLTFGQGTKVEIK" data_value=46
binder="SerH53Ala variant IgG1 (antibody, V domains shown) VH: EVQLVESGGGLVQPGGSLRLSCAASGYSFTGHWMNWVRQAPGKGLEWVGMIHPADSETRYNQKFKDRFTISVDKSKNTLYLQMNSLRAEDTAVYYCARGIYFYGTTYFDYWGQGTLVTVSS VL: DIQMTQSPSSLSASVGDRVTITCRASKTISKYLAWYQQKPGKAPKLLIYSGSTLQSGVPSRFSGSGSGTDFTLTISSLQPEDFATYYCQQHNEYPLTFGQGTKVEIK" data_value=1.8
binder="LysH73Arg variant IgG1 (antibody, V domains shown) VH: EVQLVESGGGLVQPGGSLRLSCAASGYSFTGHWMNWVRQAPGKGLEWVGMIHPSDSETRYNQKFKDRFTISVDRSKNTLYLQMNSLRAEDTAVYYCARGIYFYGTTYFDYWGQGTLVTVSS VL: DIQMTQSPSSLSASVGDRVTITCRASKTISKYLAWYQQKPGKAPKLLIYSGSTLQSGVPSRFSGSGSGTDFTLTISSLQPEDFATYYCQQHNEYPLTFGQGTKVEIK" data_value=4.6
binder="AspH65Ala variant IgG1 (antibody, V domains shown) VH: EVQLVESGGGLVQPGGSLRLSCAASGYSFTGHWMNWVRQAPGKGLEWVGMIHPSDSETRYNQKFKARFTISVDKSKNTLYLQMNSLRAEDTAVYYCARGIYFYGTTYFDYWGQGTLVTVSS VL: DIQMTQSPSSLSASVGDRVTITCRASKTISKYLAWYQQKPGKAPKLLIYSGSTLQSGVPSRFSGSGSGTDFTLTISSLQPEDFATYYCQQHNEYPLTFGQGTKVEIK" data_value=0.8
binder="GlyH31Ala variant IgG1 (antibody, V domains shown) VH: EVQLVESGGGLVQPGGSLRLSCAASGYSFTAHWMNWVRQAPGKGLEWVGMIHPSDSETRYNQKFKDRFTISVDKSKNTLYLQMNSLRAEDTAVYYCARGIYFYGTTYFDYWGQGTLVTVSS VL: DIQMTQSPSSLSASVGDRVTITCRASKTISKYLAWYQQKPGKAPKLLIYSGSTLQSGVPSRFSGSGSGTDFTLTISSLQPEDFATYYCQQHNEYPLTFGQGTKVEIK" data_value=1.2
binder="AsnL92Ala variant IgG1 (antibody, V domains shown) VH: EVQLVESGGGLVQPGGSLRLSCAASGYSFTGHWMNWVRQAPGKGLEWVGMIHPSDSETRYNQKFKDRFTISVDKSKNTLYLQMNSLRAEDTAVYYCARGIYFYGTTYFDYWGQGTLVTVSS VL: DIQMTQSPSSLSASVGDRVTITCRASKTISKYLAWYQQKPGKAPKLLIYSGSTLQSGVPSRFSGSGSGTDFTLTISSLQPEDFATYYCQQHAEYPLTFGQGTKVEIKR" data_value=3.3
binder="H2C7 variant IgG1 (antibody, V domains shown) VH: EVQLVESGGGLVQPGGSLRLSCAASGYSFTGHWMNWVRQAPGKGLEWVGMIAPAASATRYNQKFKDRFTISVDKSKNTLYLQMNSLRAEDTAVYYCARGIYFYGTTYFDYWGQGTLVTVSS VL: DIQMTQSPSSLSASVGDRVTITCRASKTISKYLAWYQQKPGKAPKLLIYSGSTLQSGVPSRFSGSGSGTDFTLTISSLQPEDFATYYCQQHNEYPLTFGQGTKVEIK" data_value=2.4
